Reference for the values: PubChem BioAssay (NCI)

Please go through the items and note down their TGI.
Tested on: MDA-MB-435
ASSAY INFO: NCI tumour cell line growth inhibition, 48 h
Numbers only, in µM.

Completed entries (count: 2):
C[C@H]1[C@H](C)CC[C@]2(C(=O)O)CC[C@]3(C)C(=CC[C@@H]4[C@@]5(C)C/C(=C/c6ccco6)C(=O)C(C)(C)[C@@H]5CC[C@]43C)[C@H]12 ... 20.4
COc1cc2c3c(n(CCCNCCCNCCCn4c5c(c6ccccc6c4=O)C(=O)c4ccccc4-5)c(=O)c2cc1OC)-c1cc2c(cc1C3=O)OCO2 ... 1.68

# evaluate next
Q: Can you look up the measured TGI of COc1ccc([N+](=O)[O-])c(S(=O)(=O)c2ccc(Cl)cc2)n1 for me?
Result: 3.66

====

Please go through the items and note down their TGI.
Tested on: M14 melanoma
ASSAY INFO: NCI tumour cell line growth inhibition, 48 h

CCOC(=O)NC(NC(C)CC)(C(F)(F)F)C(F)(F)F (stereo not given) ... > 100 µM
NCc1nnn(Cc2ccccc2)c1N ... > 100 µM
N.N.NCCCCN.O=C([O-])C1(C(=O)[O-])CCC1.O=C([O-])C1(C(=O)[O-])CCC1.[Pt+4].[Pt+4] ... > 100 µM

// each listed compound needs a value for TGI
1. C=C1C(=O)O[C@H]2[C@H]1CC/C(COC(=O)NCc1c[nH]c3ccc(Cl)cc13)=C\CC[C@@]1(C)O[C@@H]21
2. CC(C)NC(=O)OCc1c(COC(=O)NC(C)C)n(C)c2c1ccc1ccccc12
3. Cc1cc(Cl)cc2c1NC(=O)C2(O)C(C)C(=O)c1ccc(Cl)cc1 (stereo not given)
4. CCOP(=O)(C=C=C(C)C)OCC
5. COc1ccc(C(c2c(O)c3ccccc3n(C)c2=O)c2c(O)c3ccccc3n(C)c2=O)cc1
6. CCOC(=O)c1c(-c2ccc(OC)cc2)c(C#N)c(=S)n(C2OC(CO)C(O)C(O)C2O)c1-c1ccccc1 (stereo not given)
7. O=C1OC(O)C(Oc2ccc(Cl)cc2)=C1Cl (stereo not given)

Result:
1. 2.91 µM
2. 3.2 µM
3. > 100 µM
4. > 100 µM
5. > 100 µM
6. > 100 µM
7. > 100 µM

// each listed compound needs a value for TGI
1. C1=Cc2nc1c(-c1ccncc1)c1ccc([n-]1)c(-c1ccncc1)c1nc(c(-c3ccncc3)c3ccc([n-]3)c2-c2ccncc2)C=C1.[Zn+2]
2. Cn1c2ccccc2c(=NNc2ccccc2C(=O)O)c2ccccc21
3. COc1ccc2c(c1)OC[C@@H]1c3cc4c(cc3O[C@H]21)OCO4
4. COC1=CC(c2ccc[nH]2)=N/C1=C\c1ccc[nH]1
5. CCCCCCCC[N+](C)(CCCCCCCC)CCCCCCCC
6. O=[n+]1c2ccccc2n([O-])c2cc(Br)ccc21
7. Nc1ccn(C2CC(CO)C(O)C2O)c(=O)n1 (stereo not given)

Result:
1: > 100 µM; 2: 53.5 µM; 3: > 100 µM; 4: 0.629 µM; 5: 1.63 µM; 6: > 100 µM; 7: > 57.7 µM

====

Test system: KM12 colon
ASSAY INFO: NCI tumour cell line growth inhibition, 48 h
MEASURED ENDPOINT: TGI

COC(=O)C1=C(C(=O)OC)C23C=C(C)C1C2=C(C)C1(CC1)[C@@](C)(O)C3=O (stereo partly drawn) ... 11 µM
Cc1cc(Cl)cc2c1NC(=O)C2(O)C(C)C(=O)c1ccc(Cl)cc1 (stereo not drawn) ... > 100 µM
CC1=C(C(=O)NCc2ccccc2)C(c2ccccc2[N+](=O)[O-])C(C(=O)NCc2ccccc2)=C(C)N1 ... 23.1 µM

// each listed compound needs a value for TGI
1. CCC(=C/[C@H](C)C/C=C/C(C)=C/[C@@H](C)C(=O)[C@@H](C)[C@H](O)[C@@H](C)CC)/C=C/[C@H]1OC(=O)C=C[C@H]1C
2. COc1cccc(/C=C2\CCCCCC2=O)c1
3. O=C(CCCl)NNC1=NCCN1
4. CN(C)CCCc1c[nH]c2ccccc12
5. Cc1ccc(C)c(NC(=O)CC/C(=N\NC(=O)C(N)=O)C(C)C(=O)c2ccc(O)cc2)c1 (stereo not drawn)

Result:
1: 0.113 µM; 2: > 100 µM; 3: > 100 µM; 4: > 100 µM; 5: > 100 µM

// each listed compound needs a value for TGI
1. COc1ccc2c(c1)N=C1CSC(c3cc([N+](=O)[O-])ccc3Cl)N1C2 (stereo not drawn)
2. O=C1C(=O)C(Br)(Br)C(Br)=C1Br
3. Nc1ccn(C2CC(CO)C(O)C2O)c(=O)n1 (stereo not drawn)

Result:
1. 46.3 µM
2. 28.6 µM
3. > 57.7 µM

// each listed compound needs a value for TGI
1. Nc1ncnc2c1ncn2C1OC(CO)=CC1O (stereo not drawn)
2. NC(=S)N/N=C1/C(=O)N(c2ccc(Cl)cc2Cl)C(=O)C(=O)C1c1nc2ccccc2s1 (stereo not drawn)
3. COc1cc(-n2cc(-c3ccc(Cl)cc3)[nH]c2=O)cc(OC)c1OC
4. O=C(Cc1ccc(Cl)c(Cl)c1)N(CCc1ccc(Cl)c(Cl)c1)CCN1CCCC1
5. NS(=O)(=O)c1ccc(CCN=C=S)cc1
6. c1ccc2c(c1)Nc1nc3nonc3nc1N2
7. CSc1nc2sc3cc(Cl)ccc3n2c(=N)c1C#N

Result:
["> 37.5 µM", "> 100 µM", "> 100 µM", "3.67 µM", "3.06 µM", "> 100 µM", "> 72 µM"]

====

System: EKVX NSCLC
ASSAY INFO: NCI tumour cell line growth inhibition, 48 h
Please go through the items and note down their TGI.
Answers are plain numbers, in µM.

Completed entries (count: 2):
COC(=O)CCC/C=C\C[C@H]1C=CC(=O)/C1=C/C[C@@H](O)C/C=C\CC(F)(F)F ... 14.6
CC(C)NC(=O)OCc1c(COC(=O)NC(C)C)n(C)c2c1ccc1ccccc12 ... 10.4

Q: Can you look up the measured TGI of COc1cc2nc(Nc3cccc(F)c3)nc(Nc3cc(C)[nH]n3)c2cc1OC for me?
Result: 3.41

====

Test system: MDA-MB-435
ASSAY INFO: NCI tumour cell line growth inhibition, 48 h
Please note: class 1 applies when TGI is 3 µM or greater, and class 0 applies otherwise.

COc1cc([N+](=O)[O-])ccc1NC1=CC(=O)CCC1 ... class 1
NS(=O)(=O)c1ccc(CNc2nc(-c3cccs3)nc3ccc(I)cc23)cc1 ... class 1
CCn1cnc2c(Nc3cccc(Cl)c3)nc(N[C@@H]3CCCC[C@@H]3N)nc21 ... class 0

Q: Does COc1ccccc1CNCCCN1C(=O)c2ccc3c4c(ccc(c24)C1=O)C(=O)N(CCCNCCCN)C3=O have a reported TGI of at least 3 µM?
Result: class 0

Q: What do you have for COc1cc(-n2cc(-c3ccc(Cl)cc3)[nH]c2=O)cc(OC)c1OC ?
Result: class 1

Q: What do you have for Cc1ccc(C)c(-c2csc(Nc3ccc(C)c(C)c3)n2)c1 ?
Result: class 1

====

System: OVCAR-3 ovarian
ASSAY INFO: NCI tumour cell line growth inhibition, 48 h
MEASURED ENDPOINT: TGI (µM)
One number for each entry, in µM.

// each listed molecule needs a value for TGI
1. CCOC(=O)CCC(NC(=O)Cc1ccc(Oc2nc3ccccc3nc2-c2cccs2)cc1)C(=O)OCC (stereo not given)
2. COc1ccc2nc3ccccc3c(NCCCCCCN(C)CCCl)c2c1
3. COc1ccc(O)c(C=NCCCN=Cc2cc(OC)ccc2O)c1
4. COc1cc(/C=C2\COc3ccc(O)c(O)c3C2=O)cc(OC)c1

Result:
[29.2, 3.12, 37.3, 1.92]

// each listed molecule needs a value for TGI
1. Cn1c2ccccc2c(=NNc2ccccc2C(=O)O)c2ccccc21
2. COC(=O)CCC/C=C\C[C@H]1C=CC(=O)/C1=C/C[C@@H](O)C/C=C\CC(F)(F)F

Result:
1: 28.5; 2: 3.49

// each listed molecule needs a value for TGI
1. S=C(S)N1CCN(c2ccc(Cl)c(Cl)c2)CC1
2. Nc1ccc(/C=N/Nc2ccnc3c(N)cccc23)c2cccnc12
3. c1ccc(/N=N/Nc2ccc(-c3nc4ccccc4[nH]3)cc2)nc1
4. O=C(O)CC/C(=N\Nc1nsc2ccccc12)c1ccc(Cl)cc1
5. COc1cc(-n2cc(-c3ccc(Cl)cc3)[nH]c2=O)cc(OC)c1OC
6. CC#C[I+]c1ccccc1

Result:
1: 50; 2: 3.16; 3: 28.2; 4: 47.2; 5: 50.1; 6: 33.9

====

Tested on: NCI-H226 lung
ASSAY INFO: NCI tumour cell line growth inhibition, 48 h
MEASURED ENDPOINT: TGI

Completed entries (count: 4):
O=C(COc1ccccc1)NS(=O)(=O)c1ccccc1 ... > 100 µM
O=C(NCCO)Nc1c(C(F)(F)F)cc(-c2ccccc2)[nH]c1=O ... > 100 µM
Nc1ncnc2c1ncn2C1OC(CO)=CC1O (stereo not given) ... > 37.5 µM
O=c1[nH]nc(Cc2ccc(Cl)cc2)n1/N=C\CC/C=N\n1c(Cc2ccc(Cl)cc2)n[nH]c1=O ... > 71 µM

Q: Can you look up the measured TGI of N/N=C1\CCCc2c1no[n+]2[O-] for me?
Result: > 100 µM
